target: SxC^− transporter (system xC^− cystine-glutamate antiporter) (Rattus norvegicus); construct: endogenous in cells; assay: Microglial glutamate release assay (LPS-activated primary microglia); type: cell-based
Sequence (A0A8I6AB70 1-502): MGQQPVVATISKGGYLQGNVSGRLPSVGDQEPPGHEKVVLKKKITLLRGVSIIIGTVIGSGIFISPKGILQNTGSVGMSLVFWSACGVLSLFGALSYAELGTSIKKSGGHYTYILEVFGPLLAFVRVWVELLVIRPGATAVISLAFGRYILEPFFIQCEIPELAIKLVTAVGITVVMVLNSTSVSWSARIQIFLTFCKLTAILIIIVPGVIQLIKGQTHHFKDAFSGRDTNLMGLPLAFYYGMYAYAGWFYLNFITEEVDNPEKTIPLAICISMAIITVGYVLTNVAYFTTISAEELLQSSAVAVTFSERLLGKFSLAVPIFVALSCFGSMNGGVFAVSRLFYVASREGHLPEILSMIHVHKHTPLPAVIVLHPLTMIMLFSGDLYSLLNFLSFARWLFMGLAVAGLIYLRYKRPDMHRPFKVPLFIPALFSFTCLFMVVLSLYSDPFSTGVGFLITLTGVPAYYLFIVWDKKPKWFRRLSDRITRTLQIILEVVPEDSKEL
Sequence (Q794F9 whole entry partner): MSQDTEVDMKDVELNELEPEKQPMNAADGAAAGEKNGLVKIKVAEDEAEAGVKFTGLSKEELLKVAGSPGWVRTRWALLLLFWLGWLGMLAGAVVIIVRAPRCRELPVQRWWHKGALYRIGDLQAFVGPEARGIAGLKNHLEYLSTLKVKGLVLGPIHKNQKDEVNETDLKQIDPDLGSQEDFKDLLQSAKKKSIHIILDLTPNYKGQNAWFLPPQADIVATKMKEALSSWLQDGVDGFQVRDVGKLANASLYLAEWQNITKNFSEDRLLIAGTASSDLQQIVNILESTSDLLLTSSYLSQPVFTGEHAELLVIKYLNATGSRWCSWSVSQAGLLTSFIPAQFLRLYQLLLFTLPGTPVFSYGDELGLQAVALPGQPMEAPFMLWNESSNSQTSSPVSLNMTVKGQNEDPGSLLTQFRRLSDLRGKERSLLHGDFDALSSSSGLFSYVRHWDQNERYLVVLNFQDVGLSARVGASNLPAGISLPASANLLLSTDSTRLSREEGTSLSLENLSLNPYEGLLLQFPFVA
pIC50: −log10 of the molar value.
measured-quantity: pIC50

>>> recorded_result("N[C@@H](Cc1cc(Br)c(O)c(Br)c1)C(=O)O")
5.46

* * *

biological target: SxC^− transporter (system xC^− cystine-glutamate antiporter) (Rattus norvegicus); construct: endogenous in cells; assay: Microglial glutamate release assay (LPS-activated primary microglia); type: cell-based; conditions: rat primary microglia, LPS 100 ng/ml, 18 h; nonlinear regression in GraphPad Prism; read-out: IC50 ± SEM, inhibition of microglial Glu release
pIC50: −log10 of the molar value.
Rule: TRUE for pIC50 not less than 6, FALSE for anything less.

>>> label("O=C(N[C@@H](Cc1cc(Br)c(O)c(Br)c1)C(=O)O)c1ccc(-c2ccccc2)cc1 [35DBTA7]")
"FALSE"
>>> label("Cc1cccc(C(=O)N[C@@H](Cc2cc(Br)c(O)c(Br)c2)C(=O)O)c1 [35DBTA2]")
"FALSE"
>>> label("CCC(=O)N[C@@H](Cc1cc(Br)c(O)c(Br)c1)C(=O)O [35DBTA5]")
"FALSE"
>>> label("O=C(N[C@@H](Cc1cc(Br)c(O)c(Br)c1)C(=O)O)c1ccc(-c2ccc(-c3ccccc3)cc2)cc1 [35DBTA8]")
"TRUE"
>>> label("Cc1ccc(C(=O)N[C@@H](Cc2cc(Br)c(O)c(Br)c2)C(=O)O)cc1 [35DBTA3]")
"TRUE"
